These measurements were taken from the nanobody polyreactivity screen of Harvey et al. (2022).

# measurement-protocol: yeast display, Sf9 membrane polyspecificity reagent, FACS + sequencing; frameworks hold sequencing errors
metric-name: polyreactivity (PSR sort gate)

1) QVQLVESGGGLVQAGGSLRLSCAASGSIFHLYAMGWYRQAPGKEREFVAAISSSGGLTYYADSVKGRFTISRDNAKNTVYLQMNSLKPEDTEVYYCATAEQYGTKLRKVSYQYDYWGQGTQVTVSS; low polyreactivity
2) QVQLVESGGGLVQAGGSLRLSCAASGRIFYRYAMGWYRQAPGKERELVAGISNSGGSTYYADSVKGRFTISRDNAKNSVYLQRNSLKPEDTAVYYCARLSTKPLPYDYWGQGTQVTVSS; high polyreactivity
3) QVQLVESGGGLVQAGGSLRLSCAASGGNFSPNAMGWYRQAPGKERELVAAISSNGGSTNYADSVKGRFTISRDNAKNTVYLKMNSLKPEDTAVYYCAGLQKRRSYWRPFYWGQGTQVTVSS; low polyreactivity
4) QVQLVESGGGRVQAGGRIRLRCAASGLIFPGYDMGWYSPAPGKERELVAAISDSGANTYYADSVKGRFTISRDNAKNTVYLQMTSLKQEDTAVYYCAADSSWWYGTSFGRFDYWGQGTQVTVSS; low polyreactivity

Here's the next entry for you.
IN: Return value of polyreactivity (PSR sort gate) for input `QVQLVESGGGLVQAGGSLRVSCAASGTIFRRYAMGWYRQAPGKERELVATISSCTTTNYADSVKGRFTISRDNAKNTVYLQMNSLKPEDTAVYYCAADDYYEFYWGQGTQVTVSS` , no commentary.
OUT: high polyreactivity

* * *

# measurement-protocol: yeast display, Sf9 membrane polyspecificity reagent, FACS + sequencing; frameworks hold sequencing errors
metric-name: polyreactivity (PSR sort gate)

Before answering, review these 4 worked examples.
1. QVQLVESGGGLVQAGGSLRLSCAASGIIFANYAMGWYRQAPGKERELVAAITSSGSTYYADSVKGRFTISRDNAKNTVYLQMNSLKPEDTAVYYCAARRRGRFYYWGQGTQVTVSS; high polyreactivity
2. QVQLVESGGGLVQAGGSLRLSCAASGFTFSRYTMGWYRQAPGKERELVAAISFSGVRTYYADSVKGRFTISRDNAKNSVYLQMNSLKPEDTAVYYCNRVSRTRGLNLYDYWGQGTQVTVSS; high polyreactivity
3. QVQLQESGGGQVQAGGSLRLSCAASGYISTHYFMGWYRQAPGKDREFVAGISNGSITNYADSVKGRFTISRDNARNTVYLQMNSLKPEDTAVYYGAAFEWTYVRFGYWGQGTQVTVSG; high polyreactivity
4. QVQLEESGGGLVQAGGSLRLSCAASGSIFVYYGMGWYRQAPGKERELVAAISSGGSTHYADSVKGRFTISRDNAKNTVYLQMNSLKPEDTAVYYCNARAYGNGLGTGYFGKHRYDYWGQGTQVTVSS; low polyreactivity

Here's the next entry for you.
IN: Return value of polyreactivity (PSR sort gate) for input `QVQLVESGGGLVQAGGSLRLSCAASGITFFYYAMGWYRQAPGKERELVAAINWSGRTYYADSVKGRFTISRDNAKNTVYLQMNSLKPEDTAVYYCAAVTYGPGVSGMDYWGQGTQVTVSS` , no commentary.
OUT: low polyreactivity

* * *

# measurement-protocol: yeast display, Sf9 membrane polyspecificity reagent, FACS + sequencing; frameworks hold sequencing errors
metric-name: polyreactivity (PSR sort gate)

Before answering, review these 4 worked examples.
1) QVQLVESGGGLVQAGGSLRLSCAASGSIFTRYAMGWYRQAPGKEREFVAAITTRGGSTYYADSVKGRFTISRDNAKNTVYLQMNSLKPEDTAVYYCNTRGKSGLWWYNYWGQGTQVTVSS; high polyreactivity
2) QVQLVESGGGLVQAGGSLRLICAASGYTFPRYTMGWYRQAPGKERELVAAITSSGSTNYADSVKGRFTISRDNAKNTVYLQMNCLKPEDTAVYYCATLYRDWWSGYLEVDYWGQGTQVTVSS; high polyreactivity
3) QVQLVESGGGLVQAGGSLRLSCAASGRIFDIYAMGWYRQAPGKERELVAGITWRAGSTYYADSVKGRFTISRDNAKNTVYLQMNSLKPEDTAVYYCAAEVWVTDPYWGDFYYWGHGTQVTVSS; low polyreactivity
4) QVQLVESGGGLVQAGGSLRLSCSASGGIFWVYAMGWYRQAPGKERELVAAISNSDTSTSYADSVKGRFTISRDNAKNTVYLQMNSLKPEDTAVYYCNADSPSLSGDYWGQGTQVTVSS; low polyreactivity

Here's the next entry for you.
IN: Return value of polyreactivity (PSR sort gate) for input `QVQLQESGGGLVQAGGSLRLSCAASGSIFKGVDMGLYRQAPAKEREFVATIGEGGNTYYADSVKGRFTISRDNAKNTVYLQMNSLKPEDTAVYFYAVVLGTSYRYTYWGQGTQVTVSS` , no commentary.
OUT: low polyreactivity

* * *

# measurement-protocol: yeast display, Sf9 membrane polyspecificity reagent, FACS + sequencing; frameworks hold sequencing errors
metric-name: polyreactivity (PSR sort gate)

1) QVQLEESGGGLVQAGGSLRLSCAASGFIFSRYDMGWYRQAPGKERELVAAITSGGSTYYADSVKGRFTISRDNAKNTVYLQMNSLKPEDTAVYYCNAYVRSDYDYWGQGTQVTVSS; high polyreactivity
2) QVHLVESGGGLVQAGGSLRLSCAASGRIFIYNAMGWYRPPPGKERELVAAINRSGVSTHYADSVKGRFTISRDNAKNTVFLQMNSLKPEDTAVYYCARTVYGARSYDYWGQGTQVTVSS; low polyreactivity
3) QVQLVESGGGLVQAGGSLRLSSAPSGNTFYWYVMGWYRHAPGKERELVARINSSGGTTNYADSVKGRFTISRDNAKNTVYFQMNSLKPEVTAVYYCAADDIYLYGGGTDYYFCGQGTQVTVSS; low polyreactivity
4) QVQLVESGGGLVQAGGSLRLSCAASGRTFWTYAMGWYRQAPGKERELVASISKSGGSTYADSVKGRFTISRDNAKNTVYLQMNSLKPEDTAVYVCAAYPYFSKGWGWYPYDYWGQGTQVTVSS; low polyreactivity
5) QVQLVESGRGLVQAGGSLRLSCAASGRTFHYNVMGWYRQAPGKERELVAAITNTGGSTYYADSVKGRFTISRDNAKNTVYLQMNSLKPEDTAVYYCAAVIWGRRYGAYPYEYWGQGTQVTVSS; low polyreactivity
6) QVQLVESGGGLVQAGGSLRLSCAASGYTIYYYAMGWYRQAPGKERELVARITSGGSTYYADSVKGRFTISRDNAKNTVYLQMNSLKPVDTAVYYCNVEVSVEVAYWGQGTQVTVSS; low polyreactivity
7) QVQLVESGGWLVQAGGSLRLSCAASGFIFYRYAMGWYRPAPGKERELDAAISGSGGRTYYADSVKGRFTISRDNAKNTVYLQMNSLKPEDTAVYYCAADKQAYVTDDYWGQGTQVTVSS; high polyreactivity
8) QVQLVESGGGLVQAGGSLRLSCAASGSTFDRNAMGWYRQAPGKERELVAAISRRGGRTYYADSVKGRFTISRDNAKNTVYLQMNSLKPEDTAVYYCAAGKITFPMDYWGQGTQVTVSS; high polyreactivity

Here's the next entry for you.
IN: Return value of polyreactivity (PSR sort gate) for input `QVQHVESGGSLVQAGGSLRLSCAASGRTFRRYAMGWFRHAPGKAWELVAAIRSDGATYYADSVKGRFTISRDNAKNTVYLQMNSLKPEDTAVYYCNAVYVSSVTGHVDWGQGTQVTVSS` , no commentary.
OUT: low polyreactivity

* * *

# measurement-protocol: yeast display, Sf9 membrane polyspecificity reagent, FACS + sequencing; frameworks hold sequencing errors
metric-name: polyreactivity (PSR sort gate)

1) QVQLVESGGGLVQAGGSLRLSCAASGSNFKNNAMGWYRQAPGKEREFVASISKRGGSTYYADSVKGRFTISRDNAKNTVYLQMNSLKPEDTEVYYCAKTYWSYGWSHGDYGEFDYWGQGTQVTVSS; high polyreactivity
2) QVQLVESGGGLVQAGGSLRLSCAASGITFFLYGMGWYRQAPGKERELVAAISWSCASTYADSVKGRFTISRDNAKNTVYLQMNSLKPEDTAVYYCARDDNPIYSGVTYDYWGQGTQVTVSS; low polyreactivity
3) QVQLVETGGGLVQAGGSLRLSCAASGRIFVFYTKGWYRQAPGKERELVARITGGGSTSYADSVKGRFTISRDNAKNTVYLQMNSLKPEDTAVYYCAAVTRRRYYGHIYGYWGQGTQVTVSS; high polyreactivity
4) QVQLVESGGGLVQAGGSLRLSCAASGFTFSDYVMGWYRQAPGKERELVAVITSGSSTYYADSVKGRFTISRDNAKNTVYLQMNSLKPEDTAVYYCNADPDDGYFSDFDYWGQGTQVTVSS; low polyreactivity

Here's the next entry for you.
IN: Return value of polyreactivity (PSR sort gate) for input `QVQLVESGGGLVQAGGSLRLSCAASGSTFLRYTMGWYRQAPGKARELVAAITRSGGSTYYADSVKGRFTISRDTAKNTVYLQMNSLKPEDTAVYYCAKRYRVAYGYWGQGTQVTVSS` , no commentary.
OUT: high polyreactivity
